biological target: Serine/threonine-protein kinase pim-2 (Homo sapiens) (UniProt Q9P1W9); test: Inhibition of human Pim2 using RSRHSSYPAGT as substrate assessed as residual activity at 10 uM
Sequence (Q9P1W9 whole entry, looked up): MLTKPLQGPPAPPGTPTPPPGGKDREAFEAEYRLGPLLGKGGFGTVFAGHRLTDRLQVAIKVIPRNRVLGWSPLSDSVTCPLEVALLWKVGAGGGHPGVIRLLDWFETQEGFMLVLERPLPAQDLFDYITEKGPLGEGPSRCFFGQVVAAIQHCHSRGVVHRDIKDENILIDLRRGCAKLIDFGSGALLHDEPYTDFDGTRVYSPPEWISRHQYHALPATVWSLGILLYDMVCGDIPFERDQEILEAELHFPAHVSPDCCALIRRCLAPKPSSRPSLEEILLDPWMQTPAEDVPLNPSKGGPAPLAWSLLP
assay.endpoint: Activity (%)

molecule.smiles | target.entity | result
Nc1cccc2[nH]c3c(cc(C(=O)O)c4cc[nH]c43)c12 | Serine/threonine-protein kinase pim-2 (Homo sapiens) (UniProt Q9P1W9) | 89
O=C(O)c1cc2c3ccccc3[nH]c2c2[nH]ccc12 | Serine/threonine-protein kinase pim-2 (Homo sapiens) (UniProt Q9P1W9) | 93
COC(=O)c1cc2c3ccccc3[nH]c2c2[nH]ccc12 | Serine/threonine-protein kinase pim-2 (Homo sapiens) (UniProt Q9P1W9) | 75
COC(=O)c1cc2c([nH]c3cccc(N)c32)c2[nH]ccc12 | Serine/threonine-protein kinase pim-2 (Homo sapiens) (UniProt Q9P1W9) | 77

meta.source: ChEMBL document CHEMBL2086229
